molecular target: human GPR119 (Homo sapiens (Human), UniProt Q8TDV5); assay: AlphaScreen cAMP assay in Min-6/hGPR119 cells (GPR119 activation, intracellular cAMP); type: cell-based; conditions: MIN6 cells stably transfected with human GPR119; 45 minutes' incubation at RT; AlphaScreen cAMP Assay Kit
Sequence (Q8TDV5 whole entry): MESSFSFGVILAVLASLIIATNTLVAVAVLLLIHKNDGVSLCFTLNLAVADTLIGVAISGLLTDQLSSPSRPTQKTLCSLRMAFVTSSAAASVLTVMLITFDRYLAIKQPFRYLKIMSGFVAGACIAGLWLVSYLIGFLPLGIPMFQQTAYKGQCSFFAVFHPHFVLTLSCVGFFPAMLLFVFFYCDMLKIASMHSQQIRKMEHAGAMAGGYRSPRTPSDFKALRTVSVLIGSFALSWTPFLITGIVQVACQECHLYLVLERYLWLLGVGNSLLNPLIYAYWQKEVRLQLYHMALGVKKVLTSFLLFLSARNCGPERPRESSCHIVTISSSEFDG
assay readout: EC50 (nM)

CCC1CC(=O)NN=C1c1ccc2nc(-c3ccc(OCCN(CC)C(C)C)cc3)oc2c1 (stereo not shown) : 106

1. CCC1CC(=O)NN=C1c1ccc2nc(-c3ccc(OCCN4[C@@H](C)CC[C@@H]4C)cc3)oc2c1 (stereo in doubt)
2. CCC[C@H]1C(=O)NN=C(c2ccc3nc(-c4ccc(OCCN(C(C)C)C(C)C)cc4)oc3c2)[C@H]1C (relative stereo)
3. CCC1CC(=O)NN=C1c1ccc2nc(-c3ccc(OC4CCOCC4)cc3)oc2c1 (stereo not shown)
Query :: Hey, quick one: sort these by EC50, low to high? Answer format: list of labels, ordered as asked.
Result :: 3, 1, 2
(3: 80 nM, 1: 235 nM, 2: 1040 nM)
